Taken from patent US7118895B2.

System: Crude diglycosidase
ASSAY COMMENT: Examination of pH in the conversion into isoflavone aglycons by diglycosidase using soybean materials
Format: biochemical, Penicillium multicolor IAM7153
CONDITION: pH6.6; heat treatment of enzyme: no; reaction time 0 h
VALUE TYPE: Decomposition efficiency of daidzin family in concentrated soybean protein

1. O=c1c(-c2ccc(O)cc2)coc2cc(O)ccc12 3.0%
2. O=c1c(-c2ccc(O)cc2)coc2cc(O[C@@H]3O[C@H](CO)[C@@H](O)[C@H](O)[C@H]3O)ccc12 52.1%
3. CC(=O)OC[C@H]1O[C@@H](Oc2ccc3c(=O)c(-c4ccc(O)cc4)coc3c2)[C@H](O)[C@@H](O)[C@@H]1O 44.8%
